experiment: COS7 lysate on small-molecule microarray, probe aHis, 635 nm (AID 1123);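 further: z-score combines 667nm fluorescence intensity with signal-to-noise per printed compound spot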
condition.description: COS7 cell lysate, fluorescence, higher = more signal
Quick list: composite z-score per entry.
Hey, just send me the number, nothing else.

{"compound": "COC(=O)C(CC#Cc1ccc2c(c1)[C@]1(C(=O)N2)[C@H](C(=O)NC[C@H](O)c2ccccc2)[C@H]2C(=O)O[C@H](c3ccccc3)[C@H](c3ccccc3)N2[C@@H]1c1ccc(O)cc1)C(=O)OC", "composite z-score": 0.84}
{"compound": "CC1CC/C=C\\[C@H]2OC34C=CCN(CCN5CCOCC5)C(=O)[C@H]3N(C(CO)C(C)C)C(=O)[C@@H]4C2C(=O)O1 (stereo not given in full)", "composite z-score": 0.214}
{"compound": "CCOC(=O)C1=CCC(c2ccncc2)N(S(=O)(=O)c2ccc(C)cc2)C1 (stereo not given)", "composite z-score": 2.6}
{"compound": "COc1ccc([Si](C)(C)[C@@H]2[C@@H](CC(=O)N3Cc4ccccc4C[C@H]3CO)O[C@]3(C(=O)N(Cc4ccc(I)cc4)c4ccccc43)[C@H]2C)cc1", "composite z-score": 0.583}
{"compound": "C=C(CC1([C@@H](NP(=O)(c2ccccc2)c2ccccc2)[C@H]2C[C@@H]2CCCC)CC1)c1cccc(OC)c1", "composite z-score": 1.86}

Exercise: Specify reported composite z-score for the compound shown: `C=CC[C@@]1(C(=O)NCCCOC)N=C(c2ccc(OCCCO)cc2)O[C@@H]1c1ccccc1CN=[N+]=[N-]`
Key: 2.61

Exercise: Specify reported composite z-score for the compound shown: C=CC[C@]1(C(=O)NCC(O)CO)N=C(c2ccc(OCCCO)cc2)O[C@H]1c1ccccc1CN=[N+]=[N-] (stereo not given in full)
Key: 3.12

====

experiment: small-molecule microarray binders of probe aDKK1, primary screen, biochemical, biotinylated probe, 635/667 nm fluorescence (AID 1099);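 further: score merges 667nm spot fluorescence with signal to noise across triplicate slides; reference of the scale not given here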
condition.description: higher = more signal
Quick list: composite z-score per entry.
Hey, just send me the number, nothing else.

Known results for compounds:
{"compound": "C=C(COC)/C(=C/C[C@@H](OC(=O)c1ccncc1)c1ccccc1OCCO)c1cnc2ccccc2c1", "property.label": "composite z-score", "result.value": -0.0501}
{"compound": "C=CCN1C(=O)[C@@]2(O[C@@H](CCO)[C@H]([Si](C)(C)c3ccc(OC)cc3)[C@H]2C)c2cc(N3CCCCC3=O)ccc21", "property.label": "composite z-score", "result.value": -0.0333}
{"compound": "CC1C2C(CCCO)=CC(C3C(=O)N(C)C(=O)C23)N1Cc1cccc(OC(F)(F)F)c1 (configuration not stated)", "property.label": "composite z-score", "result.value": 0.784}

Exercise: Specify reported composite z-score for the compound shown: `COC(=O)[C@@]1(Cc2ccccc2)[C@H]2c3cc(C(=O)N(C)C)n(CCF)c3C[C@H]2CN1C(=O)c1ccccc1`
Key: 1.27

Exercise: Specify reported composite z-score for the compound shown: `[N-]=[N+]=NCc1ccccc1[C@H]1OC(c2ccc(OCCCO)cc2)=N[C@@]1(CCS(=O)(=O)c1ccccc1)C(=O)NCCN1CCOCC1`
Key: 0.667

Exercise: Specify reported composite z-score for the compound shown: CS(=O)(=O)CCOC(=O)C1=CC(CCCO)=CC(C2CC2)N(Cc2sc3ccccc3c2Cl)C=C1C(=O)OCCS(C)(=O)=O (configuration not stated)
Key: 0.33

Exercise: Specify reported composite z-score for the compound shown: `COCCCNC(=O)[C@@]1(Cc2ccccc2I)c2ccccc2C(=O)N(Cc2ccccc2OC)[C@H]1c1ccc(CO)cc1`
Key: -0.302

====

Test system: Sam68 (KHDRBS1)
experiment: Sam68 small-molecule binders, primary screen, biochemical, small-molecule microarray, 635 nm fluorescence (AID 1125);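 further: score merges 667 nm channel intensity with signal to noise over triplicate slides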
condition.description: small-molecule microarray binding, higher = more signal
property.label: composite z-score
Hey, just send me the number, nothing else.

Exercise: Using Sam68 (KHDRBS1) as the test system, report measured composite z-score of `COc1ccc([Si](C)(C)[C@@H]2[C@@H](CC(=O)N(CCO)Cc3ccccc3)O[C@]3(C(=O)N(Cc4cccc(I)c4)c4ccccc43)[C@H]2C)cc1` .
Key: 1.01

Exercise: Using Sam68 (KHDRBS1) as the test system, report measured composite z-score of `C[N+](C)(C)CCCC[C@@H]1NC(=O)[C@H]2C[C@@H](C(=O)O)[C@@H](c3ccc(O)cc3)N2C1=O` .
Key: 0.744

Exercise: Using Sam68 (KHDRBS1) as the test system, report measured composite z-score of COc1ccc(C(O)C2C=CC3C(=O)N(C)C(=O)C3N2Nc2ccccc2)cc1 (configuration not stated) .
Key: 1.28

Exercise: Using Sam68 (KHDRBS1) as the test system, report measured composite z-score of `C=CCN1C(=O)[C@]2(O[C@H](CCO)[C@@H]([Si](C)(C)c3ccc(OC)cc3)[C@@H]2C)c2cc(N3C(=O)c4ccccc4Oc4ccccc43)ccc21` .
Key: 1.11

Exercise: Using Sam68 (KHDRBS1) as the test system, report measured composite z-score of `[N-]=[N+]=NCc1ccccc1[C@H]1OC(c2ccc(OCCCO)cc2)=N[C@@]1(Cc1ccccc1N=[N+]=[N-])C(=O)N1CCOCC1` .
Key: 1.3

Exercise: Using Sam68 (KHDRBS1) as the test system, report measured composite z-score of `CC(C)C[C@@H]1NC(=O)[C@@H]2C[C@H](C(=O)NCCCCCCNC(=O)CS)[C@H](c3ccc(O)cc3)N2C1=O` .
Key: 1.28

Exercise: Using Sam68 (KHDRBS1) as the test system, report measured composite z-score of CC(CO)N1C(=O)[C@@H]2[C@H]3C(=O)OCC=C[C@H]3OC23C=CCN(c2ccc4ccccc4c2)C(=O)[C@@H]13 (some centres not stated) .
Key: -0.892

====

test.target: Follistatin (Homo sapiens) (UniProt P19883)
Sequence (P19883 whole entry, looked up): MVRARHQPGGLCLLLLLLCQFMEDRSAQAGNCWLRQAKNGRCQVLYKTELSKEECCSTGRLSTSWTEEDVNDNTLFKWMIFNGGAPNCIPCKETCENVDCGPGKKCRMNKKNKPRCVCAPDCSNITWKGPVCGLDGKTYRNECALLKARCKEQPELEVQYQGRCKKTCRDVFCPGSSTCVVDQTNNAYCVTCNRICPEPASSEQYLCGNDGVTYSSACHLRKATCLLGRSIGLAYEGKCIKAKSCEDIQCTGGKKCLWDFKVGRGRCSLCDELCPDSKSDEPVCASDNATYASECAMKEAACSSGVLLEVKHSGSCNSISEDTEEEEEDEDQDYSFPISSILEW
experiment: follistatin binders on small-molecule microarrays, primary screen, biochemical, small-molecule microarray, 635/667 nm fluorescence (AID 1132)
condition.description: FST binding, 635 nm fluorescence, higher = more signal
# cutoff 0.4 applies to composite z-score; >= gives Criterion met, < gives Criterion not met

Solved cases (3 shown):
{"compound": "Cc1ccc(S[C@]2(C(=O)NCc3ccccc3)CC(=O)N(Cc3ccccc3Cl)[C@@H]2c2ccc(CO)cc2)cc1", "test.target": "Follistatin (Homo sapiens) (UniProt P19883)", "cat": "Criterion not met"}
{"compound": "C=CC[C@]1(C(=O)NCC(O)CO)N=C(c2ccc(OCCCO)cc2)O[C@H]1c1ccccc1CN=[N+]=[N-] (stereo partly drawn)", "test.target": "Follistatin (Homo sapiens) (UniProt P19883)", "cat": "Criterion met"}
{"compound": "Cc1ccc(S[C@]2(C(=O)NCCN3CCOCC3)CC(=O)N(C(C)C)[C@@H]2c2ccc(CO)cc2I)cc1", "test.target": "Follistatin (Homo sapiens) (UniProt P19883)", "cat": "Criterion not met"}

Exercise: Given `CC(C)C(=C=CC[C@H](O)c1cccc(OCCO)c1)C[C@H](O)c1ccccn1` , state whether its composite z-score is at least 0.4.
Key: Criterion met

Exercise: Given `[N-]=[N+]=Nc1ccccc1C[C@]1(C(=O)N2CCCCC2)N=C(c2ccc(OCCCO)cc2)O[C@H]1c1ccccc1` , state whether its composite z-score is at least 0.4.
Key: Criterion met

Exercise: Given CCCC1(C(=O)OC)C=C2C(=C(C(C)C)C(=O)C2C)CN1 (stereo not drawn) , state whether its composite z-score is at least 0.4.
Key: Criterion not met

====

test.target: Pro-neuregulin-1, membrane-bound isoform (Homo sapiens) (UniProt Q02297)
Sequence (Q02297 whole entry, looked up, canonical isoform): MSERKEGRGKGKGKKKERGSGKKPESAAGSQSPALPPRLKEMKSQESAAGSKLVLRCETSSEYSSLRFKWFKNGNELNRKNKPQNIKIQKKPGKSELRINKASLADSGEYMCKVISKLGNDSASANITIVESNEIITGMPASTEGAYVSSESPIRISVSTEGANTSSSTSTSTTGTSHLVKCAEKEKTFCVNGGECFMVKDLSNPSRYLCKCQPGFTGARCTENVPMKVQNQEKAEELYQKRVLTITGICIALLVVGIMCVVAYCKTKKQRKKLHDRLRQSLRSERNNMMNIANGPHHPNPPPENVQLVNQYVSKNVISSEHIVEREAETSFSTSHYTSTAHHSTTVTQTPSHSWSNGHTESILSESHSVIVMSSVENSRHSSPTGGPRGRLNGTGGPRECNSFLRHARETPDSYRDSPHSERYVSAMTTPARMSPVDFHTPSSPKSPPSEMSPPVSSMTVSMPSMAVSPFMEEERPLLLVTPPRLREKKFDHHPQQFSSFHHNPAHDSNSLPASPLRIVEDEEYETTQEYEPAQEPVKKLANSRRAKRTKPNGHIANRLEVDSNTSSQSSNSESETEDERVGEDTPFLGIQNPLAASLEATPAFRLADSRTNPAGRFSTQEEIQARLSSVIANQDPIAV
experiment: NRG1 binders on small-molecule microarrays, primary screen, psychiatric disease protein project, biochemical, small-molecule microarray, fluorescence 635/667 (AID 1075);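 further: score combines 667 nm spot fluorescence with signal to noise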
condition.description: NRG1 binding, 635 nm fluorescence, higher = more signal
Quick list: composite z-score per entry.

Known results for molecules:
{"molecule": "O=C1NC(=O)C2C1C=CC(C(O)c1ccc(F)cc1)N2Nc1ccc(Cl)cc1Cl (centres undefined)", "result.value": 1.8}
{"molecule": "COCCOC(=O)N1C(=O)[C@@]2(c3cc(C#CCNC(N)=O)ccc31)[C@H](C(=O)N1CCN(c3ncccn3)CC1)[C@H]1C(=O)O[C@H](c3ccccc3)[C@H](c3ccccc3)N1[C@@H]2c1ccc(O)cc1", "result.value": -0.37}
{"molecule": "C=C(CCCC)C(=O)CC[C@H](OC(=O)c1ccccc1-c1ccccc1C(=O)O)c1cccc(OCCO)c1", "result.value": 1.29}

Exercise: Using Pro-neuregulin-1, membrane-bound isoform (Homo sapiens) (UniProt Q02297) as the test system, report measured composite z-score of `Cc1ccc(S[C@]2(C(=O)NC(C)C)CC(=O)N(Cc3ccccc3)[C@@H]2c2ccc(CO)cc2I)cc1` .
Key: 0.291
